Tested on: LOX IMVI melanoma
Assay: NCI-60 one-dose screen, 48 h (100 = growth as untreated, 0 = no growth, -100 = all killed)
Details: 10 µM unless noted
This is part of a sample that, as a whole, favours compounds with a hit. Of some 83,000 tested, about 20% had one in any assay.
Each record here notes measured growth.
Your answer should be a plain number; it is taken to be in %.

Answered cases to consult:
| SMILES REPR | growth, % |
| --- | --- |
| COc1ccc2sc3c(NCCCN)nc4ccccc4c3c(=O)c2c1 | -87.2 |
| COC(=O)c1ccc(NC(=O)CSc2nc3ccccc3c(=O)n2-c2ccccc2)cc1 | 98.4 |
| CC[C@]1(O)C[C@@H]2CN(CCc3c([nH]c4ccccc34)[C@@](C(=O)OC)(c3cc4c(cc3OC)N(C)[C@H]3[C@@](O)(C(=O)OC)[C@H](OC(=O)CCCBr)[C@]5(CC)C=CCN6CC[C@]43[C@@H]65)C2)C1 | 8.02 |
| COc1ccc(Cn2c(Br)c3c(c2-c2cc(OC)c(OC)c(OC)c2)CCc2sc(NC(C)=O)nc2-3)cc1 | 33.3 |

Given the entry "O=C1Nc2ccccc2/C1=C/c1ccc[nH]1" , report its measured growth.
98.8

Given the entry "CCn1c(-c2nonc2Nc2ccc(OC)cc2)nc2ccccc21" , report its measured growth.
107

Given the entry "O=C(NC(=S)Nc1cccc(NC(=S)NC(=O)c2ccccc2)c1)c1ccccc1" , report its measured growth.
71

Given the entry "NCCOc1ccccc1/C=C1\c2ccccc2-c2ccc([N+](=O)[O-])cc21" , report its measured growth.
-93.8

Given the entry "O=C(Nc1ccc(N2CCNCC2)cn1)c1[nH]ncc1Nc1ncnc2sccc12" , report its measured growth.
-75.1
